# System under test: catalytic domain of stromelysin (Homo sapiens)
# Construct: expression construct coding for amino acid residues 81-256 plus an initiating methionine; initiating methionine (N); made in house; host or cells: E. coli BL21(DE3)/pLysS, pET3d
# Test: enzymatic assay, cleavage of a fluorogenic substrate
# Assay type: biochemical
# Protocol: In a first study, binding constants were determined, both by the NMR method of the present invention, and by a prior art enzymatic assay. […] The KD values so obtained were compared to an inhibition constant KI as determined in an enzymatic assay. The enzymatic assay measured the rate of cleavage of a fluorogenic substrate by following the fluorescence increase upon peptide cleavage which causes a separation between the fluorophore and quencher. […]
Value type: pKi
pKi here is simply -log10 of the concentration when that concentration is written in mol/L.

* CC(=O)NO [Acetohydroxamic acid, acetohydroxamic acid, reference compound] | 1.68

Now, please, on to the next compound.
Q: Consider the compound c1cc(-c2ccncc2)ccn1 and give its measured pKi.
Result: 2.74

====

# System under test: DNA-binding domain of the E2 protein (Human papillomavirus 31)
# Construct: made in house; host or cells: bacteria, T7 expression system
# Sequence (P17383 292-372): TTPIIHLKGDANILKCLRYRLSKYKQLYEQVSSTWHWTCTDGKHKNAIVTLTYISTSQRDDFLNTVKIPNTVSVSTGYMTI
# Test: two-dimensional 15N/1H NMR correlation titration, binding constants for two binding sites
# Measurement parameters: amides of the DNA-binding site; read-out: DNA KD
Value type: Kd (µM)
Use µM as the unit, but write only the number.

Below: 5 molecules and their reported Kd.
- O=C(O)CCC(=O)c1ccc(Oc2ccccc2)cc1 [Compound 20]: 2700
- CC(CCc1ccc(Oc2ccccc2)cc1)CC(=O)O (centres unmarked) [Compound 19]: 500
- O=C(O)Cc1ccc(-c2ccccc2)cc1 [Compound 17]: 4200
- O=C(O)C=Cc1ccc(-c2ccccc2)cc1 [Compound 18]: 1200
- O=C(O)c1ccc(-c2ccccc2)cc1 [Compound 15]: 2000

Now, please, on to the next molecule.
Q: Consider the molecule O=C(O)c1ccc(-c2cc(Cl)cc(Cl)c2)cc1 [Compound 16] and give its measured Kd.
Result: 100

====

# System under test: catalytic domain of stromelysin (Homo sapiens)
# Construct: expression construct coding for amino acid residues 81-256 plus an initiating methionine; initiating methionine (N); made in house; host or cells: E. coli BL21(DE3)/pLysS, pET3d
# Test: two-dimensional 15N/1H NMR correlation titration, dissociation constant
# Type: binding
# Measurement parameters: Table 1, biaryl compounds of structure I, differing concentrations; read-out: KD
Value type: log10(Kd) (log10 of the value in µM)
For clarity, the numbers are log10 values of Kd expressed in µM.

* OCc1ccc(-c2ccccc2)cc1 | 3.51

Q: Consider the compound Oc1ccc(-c2ccc(O)cc2)cc1 and give its measured log10(Kd).
Result: 1.00

Q: Consider the compound c1ccc(-c2ccncn2)cc1 and give its measured log10(Kd).
Result: 3.20

Q: Consider the compound COc1ccc(-c2ccccc2)cc1N and give its measured log10(Kd).
Result: 2.60

Q: Consider the compound CC(=O)Oc1ccc(-c2ccccc2)cc1 and give its measured log10(Kd).
Result: 2.48

Q: Consider the compound Oc1ccc(-c2ccc(Br)cc2)cc1 and give its measured log10(Kd).
Result: 3.11

Q: Consider the compound N#Cc1ccc(-c2ccc(O)cc2)cc1 and give its measured log10(Kd).
Result: 1.00

====

Reported pKi values for a set of compounds
# System under test: catalytic domain of stromelysin (Homo sapiens, UniProt P08254)
# Construct: expression construct coding for amino acid residues 81-256 plus an initiating methionine; initiating methionine (N); made in house; host or cells: E. coli BL21(DE3)/pLysS, pET3d
# Sequence (P08254 98-273): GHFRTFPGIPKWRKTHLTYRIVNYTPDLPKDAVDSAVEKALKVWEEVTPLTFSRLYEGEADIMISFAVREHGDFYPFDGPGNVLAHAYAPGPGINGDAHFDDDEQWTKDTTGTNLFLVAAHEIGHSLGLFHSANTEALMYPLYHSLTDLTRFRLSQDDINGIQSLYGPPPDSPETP
# Test: enzymatic assay, cleavage of a fluorogenic substrate
# Assay type: biochemical
# Measurement parameters: fluorogenic substrate; matrix of acetohydroxamic acid and compound concentrations; read-out: Assay KI
pKi here is simply -log10 of the concentration when that concentration is written in mol/L.

Below: 2 compounds and their reported pKi.
• N#Cc1ccc(-c2ccc(O)cc2)cc1 = 3.96
• Oc1ccc(-c2ccc(O)cc2)cc1 = 3.15

Now, please, on to the next compound.
Q: Consider the compound c1ccc(-c2ccncn2)cc1 and give its measured pKi.
Result: 2.13
